# assay method text: Cellular Toxicity (caspase-3) Hek293 (AID 664);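 further: cells exposed to compound for 16 h at 37 °C before readout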
# measurement context: HEK293 caspase-3 activation, DMSO = 0%, 100 µM tamoxifen = 100%; at 92.2 µM (top of the series)
Results filed as inconclusive are left out.
Consider the following compounds; for each one, report its caspase-3 activation.
Record the value in %, omitting the unit from your answer.

Form field: reported caspase-3 activation of `CC(C)O`
1.95

Okay, and `Cc1ncc[nH]1` ?
-0.913

Okay, and `CC/C=C\C/C=C\C/C=C\CCCCCCCC(=O)O` ?
0.606

Okay, and `CO/N=C(/C(=O)N[C@@H]1C(=O)N2C(C(=O)O)=C(COC(N)=O)CS[C@H]12)c1ccco1` ?
0.731

Okay, and `Nc1ccc(N=Nc2ccccc2)c(N)n1` ?
-7.28

Okay, and `Nc1ncnc2c1ncn2[C@H]1CC[C@@H](CO)O1` ?
2.37

Okay, and `[O-][N+](=Nc1ccccc1)c1ccccc1` ?
0.871
